Ref: PubChem BioAssay AID1963858

Below, each entry is listed alongside its reported IC50.
System: HOP-62 multicell spheroids with HUVEC/MSC, viability
Experiment: Anticancer human tumor HOP-62 cell line growth inhibition [KRAS2];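 also: viability read after a week of compound exposure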
Conditions: curve of first compound; second compound 1 µM
Answer format: numeric, nM implied, no suffix.

Reference set (2 entries):
O=C(c1cc(Cc2n[nH]c(=O)c3ccccc23)ccc1F)N1CCN(C(=O)C2CC2)CC1 + CC1OCC2(CCN(c3cnc(Sc4ccnc(N)c4Cl)c(N)n3)CC2)C1N: 2280
CCNC(=O)CC1N=C(c2ccc(Cl)cc2)c2cc(OC)ccc2-n2c(C)nnc21 (stereo not given) + COc1cc2nc(C)nc(NC(C)c3cc(N)cc(C(F)(F)F)c3)c2cc1OC1CCOC1: 193

Now, please, on to the next compound.
The recorded IC50 for entry Cn1nccc1Nc1nccc(-c2cc3c(s2)C(C)(C)N(CCN2CCOCC2)C3=O)n1 + COc1cc2nc(C)nc(NC(C)c3cc(N)cc(C(F)(F)F)c3)c2cc1OC1CCOC1 equals 769

====

Tested on: HOP-62 multicell spheroids with HUVEC/MSC, viability
Assay: Anticancer human tumor HOP-62 cell line growth inhibition [KRAS2];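 also: viability read after a week of compound exposure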
Conditions: curve of first compound; second compound 1 µM
Source text: Multicellular complex tumor spheroid response to RAS pathway inhibitors in combination with a targeted agents in patient-derived cell lines with oncogenic KRAS variants from multiple cancer types A high-throughput screen of multi-cell type tumor spheroids was designed to identify active combinations of targeted small molecules and KRAS pathway inhibitors. […] Compounds. […] If the clinical Cmax for an agent had not been determined, the highest concentration tested was 10 microM. […]
REPORTED ENDPOINT: IC50 (nM)
Give just the numeric value; nM need not be written.

Study these solved cases before continuing.
CC(C)NCC(C(=O)N1CCN(c2ncnc3c2C(C)CC3O)CC1)c1ccc(Cl)cc1 (stereo unspecified) + C=CC(=O)N1CCN(c2nc(=O)n(-c3c(C)ccnc3C(C)C)c3nc(-c4c(O)cccc4F)c(F)cc23)C(C)C1: 88.9
COC(=O)c1ccc2c(C(=Nc3ccc(N(C)C(=O)CN4CCN(C)CC4)cc3)c3ccccc3)c(O)[nH]c2c1 + COc1cc2nc(C)nc(NC(C)c3cc(N)cc(C(F)(F)F)c3)c2cc1OC1CCOC1: 52.2
COc1cc(Nc2ncc3c(n2)-c2ccc(Cl)cc2C(c2c(F)cccc2OC)=NC3)ccc1C(=O)O + CNCc1ccccc1-c1csc(C(C)Nc2nc(C)nc3cc(OC)c(OC)cc23)c1: 39.6
CCNC(=O)CC1N=C(c2ccc(Cl)cc2)c2cc(OC)ccc2-n2c(C)nnc21 (stereo unspecified) + C=CC(=O)N1CCN(c2nc(=O)n(-c3c(C)ccnc3C(C)C)c3nc(-c4c(O)cccc4F)c(F)cc23)C(C)C1: 66.1
CCNC(=O)CC1N=C(c2ccc(Cl)cc2)c2cc(OC)ccc2-n2c(C)nnc21 (stereo unspecified) + CNCc1ccccc1-c1csc(C(C)Nc2nc(C)nc3cc(OC)c(OC)cc23)c1: 136

According to the records, this molecule COc1cc2nccc(Oc3ccc(NC(=O)C4(C(=O)Nc5ccc(F)cc5)CC4)cc3)c2cc1OC + C=CC(=O)N1CCN(c2nc(=O)n(-c3c(C)ccnc3C(C)C)c3nc(-c4c(O)cccc4F)c(F)cc23)C(C)C1 displays IC50 of 2210

Per the records, this molecule ( CC1(C)CCC(CN2CCN(c3ccc(C(=O)NS(=O)(=O)c4ccc(NCC5CCOCC5)c([N+](=O)[O-])c4)c(Oc4cnc5[nH]ccc5c4)c3)CC2)=C(c2ccc(Cl)cc2)C1 + CNCc1ccccc1-c1csc(C(C)Nc2nc(C)nc3cc(OC)c(OC)cc23)c1 ) has IC50 equal to 3380

For reference, reported IC50 for COc1cc2nccc(Oc3ccc(NC(=O)C4(C(=O)Nc5ccc(F)cc5)CC4)cc3)c2cc1OC + CC1OCC2(CCN(c3cnc(Sc4ccnc(N)c4Cl)c(N)n3)CC2)C1N stands at 31.6

====

Tested on: HOP-62 multicell spheroids with HUVEC/MSC, viability
Experiment: Anticancer human tumor HOP-62 cell line growth inhibition [KRAS2];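 also: viability read after a week of compound exposure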;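 as to viability, T/C: 100% = DMSO vehicle-treated spheroids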
Details: second compound 0.1 µM; first compound 3.16 µM; stronger effect = lower value
The threshold is 40%. Values of viability, T/C beneath it are tagged true (1); values meeting or exceeding it are tagged false (0).

CC(C)NCC(C(=O)N1CCN(c2ncnc3c2C(C)CC3O)CC1)c1ccc(Cl)cc1 (stereo not given) + CC1OCC2(CCN(c3cnc(Sc4ccnc(N)c4Cl)c(N)n3)CC2)C1N: true (1)
COC(=O)c1ccc2c(C(=Nc3ccc(N(C)C(=O)CN4CCN(C)CC4)cc3)c3ccccc3)c(O)[nH]c2c1 + C=CC(=O)N1CCN(c2nc(=O)n(-c3c(C)ccnc3C(C)C)c3nc(-c4c(O)cccc4F)c(F)cc23)C(C)C1: true (1)
CC(=O)OC12COC1CC(O)C1(C)C(=O)C(O)C3=C(C)C(OC(=O)C(O)C(NC(=O)OC(C)(C)C)c4ccccc4)CC(O)(C(OC(=O)c4ccccc4)C21)C3(C)C (stereo not given) + COc1cc2nc(C)nc(NC(C)c3cc(N)cc(C(F)(F)F)c3)c2cc1OC1CCOC1: false (0)
CC(=O)OC12COC1CC(O)C1(C)C(=O)C(O)C3=C(C)C(OC(=O)C(O)C(NC(=O)OC(C)(C)C)c4ccccc4)CC(O)(C(OC(=O)c4ccccc4)C21)C3(C)C (stereo not given) + CNCc1ccccc1-c1csc(C(C)Nc2nc(C)nc3cc(OC)c(OC)cc23)c1: false (0)

// query viability, T/C strictly < 40% for this compound? COc1cc(Nc2ncc3c(n2)-c2ccc(Cl)cc2C(c2c(F)cccc2OC)=NC3)ccc1C(=O)O + CNCc1ccccc1-c1csc(C(C)Nc2nc(C)nc3cc(OC)c(OC)cc23)c1
// result true (1)

// query Does the reported viability, T/C of the following compound sit strictly below 40%? CC1(C)CCC(CN2CCN(c3ccc(C(=O)NS(=O)(=O)c4ccc(NCC5CCOCC5)c([N+](=O)[O-])c4)c(Oc4cnc5[nH]ccc5c4)c3)CC2)=C(c2ccc(Cl)cc2)C1 + CC1OCC2(CCN(c3cnc(Sc4ccnc(N)c4Cl)c(N)n3)CC2)C1N
// result false (0)

====

Test system: HOP-62 multicell spheroids with HUVEC/MSC, viability
Experiment: Anticancer human tumor HOP-62 cell line growth inhibition [KRAS2]; active means viability on the fitted dose curve at most 10% of control; inactive means the rest;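 also: viability read after a week of compound exposure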
Conditions: second compound 10 µM; first compound 0.01 µM
Could you please pick one outcome from this set? True (active), False (inactive)

A selection of reference data follows.
Cn1ncnc1[C@H]1c2n[nH]c(=O)c3cc(F)cc(c23)N[C@@H]1c1ccc(F)cc1 + CNCc1ccccc1-c1csc(C(C)Nc2nc(C)nc3cc(OC)c(OC)cc23)c1: True
CN(C)C/C=C/C(=O)Nc1cc2c(Nc3ccc(F)c(Cl)c3)ncnc2cc1O[C@H]1CCOC1 + COc1cc2nc(C)nc(NC(C)c3cc(N)cc(C(F)(F)F)c3)c2cc1OC1CCOC1: False
CCN1CCN(Cc2ccc(Nc3ncc(F)c(-c4cc(F)c5nc(C)n(C(C)C)c5c4)n3)nc2)CC1 + CNCc1ccccc1-c1csc(C(C)Nc2nc(C)nc3cc(OC)c(OC)cc23)c1: True
CC(=O)OC12COC1CC(O)C1(C)C(=O)C(O)C3=C(C)C(OC(=O)C(O)C(NC(=O)OC(C)(C)C)c4ccccc4)CC(O)(C(OC(=O)c4ccccc4)C21)C3(C)C (configuration not stated) + CC1OCC2(CCN(c3cnc(Sc4ccnc(N)c4Cl)c(N)n3)CC2)C1N: False
CC1COCCN1c1cc(-c2ccnn2C)c2ccnc(-c3ccn[nH]3)c2n1 (configuration not stated) + C=CC(=O)N1CCN(c2nc(=O)n(-c3c(C)ccnc3C(C)C)c3nc(-c4c(O)cccc4F)c(F)cc23)C(C)C1: False

// query In this assay, the call recorded for CC(=O)OC12COC1CC(O)C1(C)C(=O)C(O)C3=C(C)C(OC(=O)C(O)C(NC(=O)OC(C)(C)C)c4ccccc4)CC(O)(C(OC(=O)c4ccccc4)C21)C3(C)C (configuration not stated) + COc1cc2nc(C)nc(NC(C)c3cc(N)cc(C(F)(F)F)c3)c2cc1OC1CCOC1 was what?
// result False

// query Answer briefly: the call reported for CC(=O)OC12COC1CC(O)C1(C)C(=O)C(O)C3=C(C)C(OC(=O)C(O)C(NC(=O)OC(C)(C)C)c4ccccc4)CC(O)(C(OC(=O)c4ccccc4)C21)C3(C)C (configuration not stated) + CNCc1ccccc1-c1csc(C(C)Nc2nc(C)nc3cc(OC)c(OC)cc23)c1 in this assay.
// result True

====

Consider the following molecules and their measured viability, T/C readings.
Test system: HOP-62 multicell spheroids with HUVEC/MSC, viability
Assay: Anticancer human tumor HOP-62 cell line growth inhibition [KRAS2];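 also: viability read after a week of compound exposure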;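 as to viability, T/C: 100% = DMSO vehicle-treated spheroids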
Conditions: second compound 0.1 µM; first compound 3.16 µM; stronger effect = lower value
Give just the number in %; leave the unit off.

Field: example entries. Status: answers known.
CC1COCCN1c1cc(-c2ccnn2C)c2ccnc(-c3ccn[nH]3)c2n1 (stereo not given) + COc1cc2nc(C)nc(NC(C)c3cc(N)cc(C(F)(F)F)c3)c2cc1OC1CCOC1: 10.7
COC(=O)c1ccc2c(C(=Nc3ccc(N(C)C(=O)CN4CCN(C)CC4)cc3)c3ccccc3)c(O)[nH]c2c1 + COc1cc2nc(C)nc(NC(C)c3cc(N)cc(C(F)(F)F)c3)c2cc1OC1CCOC1: 34.9

Record for COc1cc(Nc2ncc3c(n2)-c2ccc(Cl)cc2C(c2c(F)cccc2OC)=NC3)ccc1C(=O)O + C=CC(=O)N1CCN(c2nc(OCC3CCCN3C)nc3c2CCN(c2cccc4cccc(C)c24)C3)CC1CC#N under target or system HOP-62 multicell spheroids with HUVEC/MSC, viability: viability, T/C reported as 17.4

Item: CC(=O)OC12COC1CC(O)C1(C)C(=O)C(O)C3=C(C)C(OC(=O)C(O)C(NC(=O)OC(C)(C)C)c4ccccc4)CC(O)(C(OC(=O)c4ccccc4)C21)C3(C)C (stereo not given) + C=CC(=O)N1CCN(c2nc(=O)n(-c3c(C)ccnc3C(C)C)c3nc(-c4c(O)cccc4F)c(F)cc23)C(C)C1 | System: HOP-62 multicell spheroids with HUVEC/MSC, viability | viability, T/C: 28.5

Entry CC1COCCN1c1cc(-c2ccnn2C)c2ccnc(-c3ccn[nH]3)c2n1 (stereo not given) + CNCc1ccccc1-c1csc(C(C)Nc2nc(C)nc3cc(OC)c(OC)cc23)c1 under HOP-62 multicell spheroids with HUVEC/MSC, viability had viability, T/C of 16.4
